measurement_kind: melting point

Some solved cases for reference:
{"columns": ["compound", "result"],
 "data": [
  ["N#CCc1c(-c2ccc(O)cc2)oc2ccccc2c1=O [Example 21]", "258.2 to 259.5 °C"],
  ["COc1cc(OC)c2c(=O)[nH]c(-c3ccc(O)cc3)cc2c1 [Example 60]", "245 to 247 °C"],
  ["O=c1cc(-c2ccc(O)cc2)oc2cnccc12 [Example 36]", "294 to 296 °C"],
  ["COc1ccc(-c2cc(=O)c3cccnc3o2)cc1 [Example 44]", "269 to 270 °C"],
  ["O=c1cc(-c2ccc(O)c(F)c2)oc2ncccc12 [Example 37]", "267 to 268 °C"]
]}

Now, please, on to the next compound.
Give the measured melting point of O=c1cc(-c2ccc(O)cc2)oc2c([N+](=O)[O-])cccc12 [Example 16] .
299 to 301 °C
